The reported measurements were obtained from patent US11654143B2.

system: GPVI platelet aggregation; test: GPVI platelet aggregation studies; format: cell-based; conditions: Platelet; FIG. 122
Assay Metric: IC50 (nM)
Your answer is read as nM, so omit the unit and give the number.

Notebook: pull reported IC50 for GPVI platelet aggregation, entry C=CC(=O)N1CCC[C@@H](n2nc(-c3ccc(Oc4ccccc4)cc3)c3c(N)ncnc32)C1 [Formula (XX-A), reference compound]
130
